Origin of values: the supplement of paper PMC10724198

Would you kindly list protein stability index for each of these sequences?
# Tested on: Saccharomyces cerevisiae
# Run description: protein stability index of tFT-peptide fusion (C-terminal peptide) (PSI (0-1 scale)); higher = more stable (slower turnover);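 note: PSI is a weighted mean of sequencing reads over stability bins, variants kept only with over 10 reads, mCherry proximal and sfGFP distal, peptide attached via GGGS linker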
# Condition context: genetic background: das1 deletion; temperature: 30 C
In your answer, state the number alone without any accompanying words.

Identify the reported protein stability index for the following entry. `LLFVLWLSFFVL`
0.272

Identify the reported protein stability index for the following entry. `VVSVVVLVNSRG`
0.36

Identify the reported protein stability index for the following entry. `SRLLGVKVSLVC`
0.419

Identify the reported protein stability index for the following entry. `LVCSLLVPSSFF`
0.634

Identify the reported protein stability index for the following entry. `VCLLVSVCLLWL`
0.21

Identify the reported protein stability index for the following entry. `VRYCFFWVRAVV`
0.233

Identify the reported protein stability index for the following entry. `VCRCFPVCLFSF`
0.523

Identify the reported protein stability index for the following entry. `KRKKHKRKLVIC`
0.612

Identify the reported protein stability index for the following entry. `RMCEILGIRHLI`
0.645

Identify the reported protein stability index for the following entry. `RIVLRPPFNSVA`
0.656

Identify the reported protein stability index for the following entry. `IFRLVRVVRSSS`
0.6

Identify the reported protein stability index for the following entry. `CLYATQFWGRYG`
0.629

Identify the reported protein stability index for the following entry. `RGSRLVPRLLRP`
0.648

Identify the reported protein stability index for the following entry. `GFALGSFMLVLR`
0.0861

Identify the reported protein stability index for the following entry. `FFCCFVFVLGFC`
0.312

Identify the reported protein stability index for the following entry. `FYACRLWLVSVR`
0.191

Identify the reported protein stability index for the following entry. `ELTYVYRTALIA`
0.204

Identify the reported protein stability index for the following entry. `LLCLAVVLWFVV`
0.239

Identify the reported protein stability index for the following entry. `RGGWVVVLGCVG`
0.482

Identify the reported protein stability index for the following entry. `APRPSYSLLALL`
0.711

Identify the reported protein stability index for the following entry. `LSPLPSPLILVV`
0.201

Identify the reported protein stability index for the following entry. `FSPSPVFVTCRV`
0.208

Identify the reported protein stability index for the following entry. `RAEASFFLPKVG`
0.668

Identify the reported protein stability index for the following entry. `FVLLCVLEFVAG`
0.173

Identify the reported protein stability index for the following entry. `CSAVYNLHLLYS`
0.626

Identify the reported protein stability index for the following entry. `PPSPPLPPPSPF`
0.69

Identify the reported protein stability index for the following entry. `FILLTLVFGCAS`
0.228

Identify the reported protein stability index for the following entry. `YQFDGLVFLRLS`
0.645

Identify the reported protein stability index for the following entry. `VLVWLRLRVGLR`
0.218

Identify the reported protein stability index for the following entry. `CVFFCVLVCFLS`
0.302

Identify the reported protein stability index for the following entry. `FDWLFFFVNFVV`
0.475

Identify the reported protein stability index for the following entry. `DALHPCIIYLTC`
0.328

Identify the reported protein stability index for the following entry. `SPSRAGQHLYYP`
0.64

* * *

Would you kindly list protein stability index for each of these sequences?
# Tested on: Saccharomyces cerevisiae
# Run description: protein stability index of tFT-peptide fusion (C-terminal peptide) (PSI (0-1 scale)); higher = more stable (slower turnover)
# Condition context: genetic background: wild type; temperature: 30 C

Identify the reported protein stability index for the following entry. `QTKEGSDRHRSS`
0.748

Identify the reported protein stability index for the following entry. `CMFATFLFVPPL`
0.591

Identify the reported protein stability index for the following entry. `PPRHPSPGLVPT`
0.722

Identify the reported protein stability index for the following entry. `GLVAVRARGSRA`
0.663

Identify the reported protein stability index for the following entry. `RVDVSVLWNRRS`
0.486

Identify the reported protein stability index for the following entry. `IPFPSSARLRAD`
0.708

Identify the reported protein stability index for the following entry. `VSTRSTVVVSSL`
0.662

Identify the reported protein stability index for the following entry. `SLLRSPSLPQSN`
0.634

Identify the reported protein stability index for the following entry. `PHPPRPPRAPPP`
0.634

Identify the reported protein stability index for the following entry. `YDVLGLFPICKW`
0.729

Identify the reported protein stability index for the following entry. `PRTAAFDSLLPT`
0.688

Identify the reported protein stability index for the following entry. `AGVPCLSVPPLG`
0.683
